- Tested on: SNB-19 CNS
- test.method.notes: NCI-60 one-dose screen, 48 h (100 = growth as untreated, 0 = no growth, -100 = all killed)
- protocol.conditions: 10 µM unless noted
The panel holds about 83,000 compounds, 20% with a hit somewhere; the sample as a whole holds those more often.
measured.metric: growth (%)
Give your result in % as a bare value.

COCCCNS(=O)(=O)c1ncnc2nc[nH]c12 : 122
Nc1ccn(C2O[C@H](CO)[C@@H](O)[C@@H]2O)c(=O)n1 (stereo partly drawn) : 47.9
NC(=N\N=C/Cc1ccccc1)/C(N)=N\N=C\Cc1ccccc1 : 96.6
O=C1/C=C/[C@@H](O)[C@@H]2C[C@@H](O)C[C@H]2/C=C/CCC[C@H](CO)O1 : 48.8
Cc1ccc(C2=NNC(c3sc(Cl)nc3Cl)C2)cc1 (stereo not drawn) : 92
CCNCCCn1c2c(c3ccc(F)cc3c1=O)C(=O)c1cc(OC)cnc1-2 : 12.1
C(=C1c2ccccc2-c2ccccc21)c1ccccn1 : 73.6
N#Cc1c(-c2ccccc2)cc(-c2ccccc2)n(CCCCC(=O)O)c1=O : 96.1

In: Give the reported value of growth for this record: CN1CCC[C@@H]1CCO[C@](C)(c1ccccc1)c1ccc(Cl)cc1
Out: 99.5

In: Give the reported value of growth for this record: COc1ccc(C2CC(c3ccc(Nc4ccnc5cc(Cl)ccc45)cc3)=NN2C(C)=O)cc1 (stereo not drawn)
Out: 82.4

In: Give the reported value of growth for this record: Clc1ccc(C2=NN(c3ccc(Cl)cc3)C(c3cccc(Nc4ccnc5cc(Cl)ccc45)c3)C2)cc1 (stereo not drawn)
Out: 82.3

In: Give the reported value of growth for this record: O=C(Nc1nn2c(-c3cc(C(F)(F)F)cc(C(F)(F)F)c3)nnc2s1)C1CCCC1
Out: 26.6

In: Give the reported value of growth for this record: CCCCCN(CCCCC)CCCNc1c2c(nc3ccc(Cl)cc13)CCCC2
Out: 60.8

In: Give the reported value of growth for this record: O=C(COc1cccc(/C=C2\Oc3ccc4ccccc4c3C2=O)c1)c1ccc(Cl)cc1
Out: 92

###

- Tested on: MDA-MB-231 breast
- test.method.notes: NCI-60 one-dose screen, 48 h (100 = growth as untreated, 0 = no growth, -100 = all killed)
- protocol.conditions: 10 µM unless noted
The panel holds about 83,000 compounds, 20% with a hit somewhere; the sample as a whole holds those more often.
# key: entry, value: growth
Give your result in % as a bare value.

CC1C(C)N(C(=O)CCl)c2ccccc2N1C(=O)CCl (stereo not drawn) : -53.8
Nc1ccccc1C#Cc1ccccc1C#Cc1ccc(OCCCCCCOc2ccc(C#Cc3ccccc3C#Cc3ccccc3N)cc2)cc1 : 86

Alright, here's another molecule for you.
In: Check MDA-MB-231 breast data and give growth for COc1ccc(-c2cc(-c3nnc(SCC(=O)Nc4ccc(C(C)=O)cc4)n3-c3ccccc3)c3ccccc3n2)cc1OC .
Out: 105

###

- Tested on: BT-549 breast
- test.method.notes: NCI-60 one-dose screen, 48 h
- protocol.conditions: 10 µM unless noted
The panel holds about 83,000 compounds, 20% with a hit somewhere; the sample as a whole holds those more often. The source made the active and inactive calls. How the source made its calls: active means growth percent below 10; inactive means the rest.
Choose the fitting class; nothing outside active, inactive is accepted.

Worked cases, answers included:
NS(=O)(=O)c1ccc(-n2ncc3c(SCc4ccccc4)ncnc32)cc1 : inactive
Cc1cc(Br)c(C)cc1Br : inactive
CC(=O)Nc1cc(C(c2ccccc2)c2ccccc2)cc(C(c2ccccc2)c2ccccc2)c1C : inactive
C/C(=C\CCc1ccoc1)CC/C=C(\C)CCCN1CCOCC1 : inactive
O=C(Nc1ccccc1S)c1ccccc1 : inactive

Here is another compound to look at.
In: # outcome recorded in this test, key = COc1cccc2c1C(=O)c1c(O)c3c(c(O)c1C2=O)C[C@@](O)(C(C)=O)C[C@@H]3O[C@H]1C[C@H](N)[C@H](O)[C@H](C)O1
Out: active

###

# key: entry, value: growth
- Test system: BT-549 breast
- test.method.notes: NCI-60 one-dose screen, 48 h (100 = growth as untreated, 0 = no growth, -100 = all killed)
- protocol.conditions: 10 µM unless noted
- Experimental: Growth inhibition of the BT-549 human tumor cell line is measured as a screen for anti-cancer activity. Cells are grown in 96 well plates and exposed to the test compound for 48 hours. Compounds are tested at a single concentration, which is 10^-5 M for most compounds. The reported endpoint is percent growth (GI% or GIPRCNT), where numbers from 0 - 100% represent growth inhibition, and numbers from -100% - 0 represent cell death. For example, a value of 40 represents 60% growth inhibition. […]
The panel holds about 83,000 compounds, 20% with a hit somewhere; the sample as a whole holds those more often.
Give your result in % as a bare value.

Guide cases for growth, answers given:
Nc1nc(Nc2ccccc2SSc2ccccc2Nc2nc(N)nc(-c3ccc(I)cc3)n2)nc(-c2ccc(I)cc2)n1 : 70.8
CC(=O)c1ccc(NS(=O)(=O)c2ccc([N+](=O)[O-])cc2)cc1 : 102
COc1cc(/C(Cl)=C/C=C/C(=O)c2c(C)[n+]([O-])c3ccc(Cl)cc3[n+]2[O-])cc(OC)c1OC : 36.5
CCCCc1ccc(C(N)=O)nc1 : 97.8

In: Check BT-549 breast data and give growth for CCCc1n(Cc2ccc3ccccc3c2)cc[n+]1Cc1ccc2ccccc2c1 .
Out: -32.2

In: Check BT-549 breast data and give growth for C[C@@H]1CN(c2nc3c(cc2F)c(=O)c(C(=O)O)cn3C(C)(C)C)C[C@H](C)N1 .
Out: 107

In: Check BT-549 breast data and give growth for COc1ccc(CCN2C(=O)CCC3=C2CCCC3=O)cc1OC .
Out: 104

In: Check BT-549 breast data and give growth for COc1cc(-c2nnc(-c3nc(-c4cc(OC)c(OC)c(OC)c4)n4ccccc34)o2)ccc1N .
Out: 67.1

###

- Tested on: HCT-15 colon
- test.method.notes: NCI-60 one-dose screen, 48 h (100 = growth as untreated, 0 = no growth, -100 = all killed)
- protocol.conditions: 10 µM unless noted
The panel holds about 83,000 compounds, 20% with a hit somewhere; the sample as a whole holds those more often. Calls of active or inactive are those of the source. Rule for the calls: active = growth percent below 10; inactive = the rest.
measured.metric: growth

O=C(CNC(=O)c1cccc2ccccc12)Nc1ccccc1Oc1ccc(O)cc1 : 27.4% [5 µM] (inactive)
CCCCNCCCN(CCCC)CCCNCCCC : 93.2% (inactive)

Alright, here's another compound for you.
In: Give the reported value of growth for this record: COc1cccc(-c2nc3cc(NC(=O)c4ccc(Cl)c(C#N)c4)ccc3o2)c1
Out: 51.6% (inactive)

###

- Tested on: A549/ATCC NSCLC
- test.method.notes: NCI-60 one-dose screen, 48 h (100 = growth as untreated, 0 = no growth, -100 = all killed)
- protocol.conditions: 10 µM unless noted
This is part of a sample that, as a whole, favours compounds with a hit. Of some 83,000 tested, about 20% had one in any assay. Calls of active or inactive are those of the source. Rule for the calls: active = growth percent below 10; inactive = the rest.
# key: entry, value: growth

Guide cases for growth, answers given:
NC(=N\N=C/Cc1ccccc1)/C(N)=N\N=C\Cc1ccccc1 : 101% (inactive)
COc1cc(/C=C/C(=O)CC(=O)/C=C/c2ccc(OC(=O)CCNC34CC5CC(CC(C5)C3)C4)c(OC)c2)ccc1OC(=O)CCNC12CC3CC(CC(C3)C1)C2 : 63.1% (inactive)
CNCCCn1c2c(c3ccc(F)cc3c1=O)C(=O)c1cc(OC)cnc1-2 : -71.2% (active)
CCCCCCCC[Si](OCC)(OCC)OCC : 102% (inactive)

Alright, here's another compound for you.
In: Give the reported value of growth for this record: CCOC(=O)C(C(=O)OCC)C1CCCCC1
Out: 96.8% (inactive)

###

- System: BT-549 breast
- test.method.notes: NCI-60 one-dose screen, 48 h
- protocol.conditions: 10 µM unless noted
This is part of a sample that, as a whole, favours compounds with a hit. Of some 83,000 tested, about 20% had one in any assay. Active and inactive are the calls of the source. The calls were made as follows: active = growth percent below 10; inactive = the rest.
Choose the fitting class; nothing outside TRUE = active, FALSE = inactive is accepted.

Worked cases, answers included:
COC(=O)[C@H](Cc1cn(C)cn1)NC(=O)[C@H](Cc1ccccc1)NC(=O)Nc1cc(C(F)(F)F)cc(C(F)(F)F)c1 : TRUE
CCN(CC)CCOCC[C@H]1CC[C@H]2[C@@H]3[C@H](C)Cc4cc(OS(N)(=O)=O)ccc4[C@H]3CC[C@]12C : TRUE
N/C(=N\C(N)=N\c1nc2ccccc2s1)c1ccnc(Cl)c1 : FALSE
COc1ccc(-c2cc(-c3nnc(SCC(=O)Nc4ccc(C(C)=O)cc4)n3-c3ccccc3)c3ccccc3n2)cc1OC : FALSE
Oc1ccccc1/C=N/N1CCCCCC1 : FALSE

In: # outcome recorded in this test, key = O=C(CSc1nnc(-c2cc(-c3ccccc3)nc3ccccc23)o1)c1ccc(Br)cc1
Out: FALSE

In: # outcome recorded in this test, key = CNCCCn1c2c(c3ccc(F)cc3c1=O)C(=O)c1cc(OC)cnc1-2
Out: TRUE

In: # outcome recorded in this test, key = [N-]=[N+]=NCc1ncc(-c2ccc(C(F)(F)F)cc2)c(NC2CCCCCC2)n1
Out: FALSE

In: # outcome recorded in this test, key = O=C1NC(=O)/C(=C\c2ccco2)S1
Out: FALSE

In: # outcome recorded in this test, key = Oc1c(Cl)cc(Oc2cc(Cl)c(O)c(CN3CCOCC3)c2)cc1CN1CCOCC1
Out: FALSE

In: # outcome recorded in this test, key = Cc1cc(C(=O)Nc2ccc3cc(CN4CCOCC4)ccc3n2)c(C)n1-c1ccccc1
Out: TRUE

In: # outcome recorded in this test, key = CCCCCCCCCCCCC1CCCC(C)C1 (stereo not drawn)
Out: FALSE

In: # outcome recorded in this test, key = Cc1[nH]ccc2cc3nc4ccccc4c3cc12
Out: FALSE

In: # outcome recorded in this test, key = CSc1nc(-c2ccc(O)cc2O)c2c(=O)[nH]c(Nc3ccc(S(=O)(=O)Nc4nc(C)cc(C)n4)cc3)nc2n1
Out: FALSE

In: # outcome recorded in this test, key = Cc1csc(C#Cc2cncc(O)c2)n1
Out: FALSE

In: # outcome recorded in this test, key = CN(C)c1ccc(-c2nc3ncc(Br)cc3o2)cc1
Out: FALSE

In: # outcome recorded in this test, key = C[C@H]1C(=O)N2c3ccccc3[C@@]3(O)C[C@@H](n4cnc5ccccc5c4=O)C(=O)N1[C@@H]23
Out: FALSE

In: # outcome recorded in this test, key = CCOC(=O)Nc1cc(-c2ccc(C)c(NS(C)(=O)=O)c2)nn2c(C)nnc12
Out: FALSE

In: # outcome recorded in this test, key = N#Cc1c(-c2ccccc2)cc(-c2ccccc2)n(CCCCCCC(=O)O)c1=O
Out: FALSE

In: # outcome recorded in this test, key = O=C1NCCc2c1noc2-c1ccccc1
Out: FALSE

In: # outcome recorded in this test, key = N[C@H](CS)C(=O)O
Out: FALSE

In: # outcome recorded in this test, key = Nc1c(C(=O)Nc2cccc(Cl)c2)sc2nc3c(cc12)C(O)CCC3 (stereo not drawn)
Out: FALSE

In: # outcome recorded in this test, key = Cc1sc2nc(NCCc3cccs3)[nH]c(=O)c2c1C
Out: FALSE
